Some binders, each annotated with its measured CAR+ (gate frequency).
# System: anti-BCMA CAR
# Measurement notes: flow cytometry; clonal supernatant on anti-BCMA CAR T cells, FITC goat anti-rabbit F(ab')2 detection
The answer should be written as a number, with no unit following it.

binder="Clone 63-1 (antibody, V domains shown) VH: QEQLEESGGDLVKPGASLTLTCTASGFSFSSGYWICWVRQAPGKGLEWIACIYTRSGGSTHYASWAKGRFTTSKTSSTTVTLQMTSLTAADMATYFCARDPYVLSAGPDNVLWGPGTLVTVSS VL: ALVMTQTPSPVSAAVGGTVTINCQASESIGSDLGWYQQKPGQPPKFLIYWASTLVSGVPSRFEGSGSGTQFTLTISDLECDDAATYYCAGYESLSNDGNAFGGGTEVVVK" quantitative_result=58.2
binder="Clone 9-1 (antibody, V domains shown) VH: QQQLEESGGGLVKPGGTLTLTCTASGFSFSSGQWMCWVRQAPGKGLELIACIYTSAGGSTHYASWATGRFTISKTSSTTVTLQMTSLTAADTATYFCARDPYLLSAGPDNNLWGPGTLVAVSS VL: ALVMTQTPSPVSAAVGGTVTINCQASQSIGSDFTWWQQKPGQPPKLLIYWASTLASGVSSRFKGSGSGTQFTLTISDLECDDAATYYCAGYVSYSDDGNAFGGGTEVVVK" quantitative_result=60.9
binder="Clone 9-9 (antibody, V domains shown) VH: QQQLEESGGGLVKPGGTLTLTCTASGFSFSSGQRMCWVRQAPGKGLELIACIYTSAGGSTHYASWATGRFTISKTSSTTVTLQMTSLTAADTATYFCARDPYLLSAGPDNNLWGPGTLVAVSS VL: ALVMTQTPSPVSAAVGGTVTINCQASQSIGSDFTWWQQKPGQPPKLLIYWASTLASGVSSRFKGSGSGTQFTLTISDLECDDAATYYCAGYVSYSDDGNAFGGGTEVVVK" quantitative_result=51.8

Consider the additional binder presented here.
Look up CAR+ (gate frequency) for this binder: Clone 154-7 (antibody, V domains shown) VH: QSLEESGGDLVKPEGSLTLTCTASGFSFSSSYWICWVRQAPGKGLEWIACIYTANSGRTVYASWAKGRFTISKTSSTTVTLQLPSLTAADTATYFCARDIYVLTTTDNLWGPGTLVTVSS VL: ALVMTQAPSPVSAAVGGTVTISCQASQPIGSDLVWYQQKPGQPPKLLIYYASDLASGVPSRFKGSGSGTRFTLTISGVECDDAATYYCAGYKNYDHDDCGFGGGTEVVVK 47.1
